# Procedure Summary: Clearance after oral and iv dosing in dogs
# Assay type: ADME, organism-based, Canis lupus familiaris
# Measurement Conditions: dog, in vivo, read-out: CI
Measured Property: clearance (mL/min/kg)

Recorded clearance, per entry:
// query Given CN(CC(C(=O)O)c1ccc2c(c1)OCC2)C(=O)CCC1CCc2cc3c(nc2C1)NCCC3 (stereo not given) , state its recorded clearance.
// result 10.3

// query What does the record list as clearance for O=C(CCC1CCc2cc3c(nc2C1)NCCC3)NCC(C(=O)O)c1ccc2c(c1)OCC2 (stereo not given) ?
// result 18.9

1 = O=C(O)C[C@H](NC(=O)CCCCc1ccc2c(n1)NCCC2)c1ccc2c(c1)OCC2
2 = O=C(CCCCc1ccc2c(n1)NCCC2)NCC(C(=O)O)c1ccc2c(c1)OCC2 (stereo not given)
3 = O=C(CCCCc1nc2c(cc1C1CC1)CCCN2)NCC(C(=O)O)c1ccc2c(c1)OCC2 (stereo not given)
// query // smallest clearance at index 0, largest at the end Put the labels in the order asked and list them.
// result 1, 2, 3
(1: 2 mL/min/kg, 2: 6.6 mL/min/kg, 3: 13.7 mL/min/kg)

----------
# System Tested: Integrin alpha-V/beta-3 (Homo sapiens, UniProt P05106+P06756)
# Sequence (P05106 27-788 limits assumed): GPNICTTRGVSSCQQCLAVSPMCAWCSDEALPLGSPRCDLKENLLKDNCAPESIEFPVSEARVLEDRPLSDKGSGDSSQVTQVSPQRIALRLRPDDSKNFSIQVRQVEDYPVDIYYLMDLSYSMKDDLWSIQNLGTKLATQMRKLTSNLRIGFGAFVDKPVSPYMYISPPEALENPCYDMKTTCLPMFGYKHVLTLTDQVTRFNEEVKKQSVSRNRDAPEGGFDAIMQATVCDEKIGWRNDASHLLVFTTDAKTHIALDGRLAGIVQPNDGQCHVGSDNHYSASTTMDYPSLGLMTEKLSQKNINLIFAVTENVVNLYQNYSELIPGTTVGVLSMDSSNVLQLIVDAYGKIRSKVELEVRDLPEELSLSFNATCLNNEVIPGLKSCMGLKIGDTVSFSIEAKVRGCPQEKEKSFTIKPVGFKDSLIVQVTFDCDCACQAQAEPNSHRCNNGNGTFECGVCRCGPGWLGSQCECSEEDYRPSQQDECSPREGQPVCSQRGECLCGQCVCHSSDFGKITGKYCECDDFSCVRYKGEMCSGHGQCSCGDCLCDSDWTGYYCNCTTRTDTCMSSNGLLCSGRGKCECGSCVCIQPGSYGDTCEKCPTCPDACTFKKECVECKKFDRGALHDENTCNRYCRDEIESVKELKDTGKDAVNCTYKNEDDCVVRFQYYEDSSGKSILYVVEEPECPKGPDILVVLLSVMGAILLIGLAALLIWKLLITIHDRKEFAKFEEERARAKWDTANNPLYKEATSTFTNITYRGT
# Sequence (P06756 31-889 limits assumed): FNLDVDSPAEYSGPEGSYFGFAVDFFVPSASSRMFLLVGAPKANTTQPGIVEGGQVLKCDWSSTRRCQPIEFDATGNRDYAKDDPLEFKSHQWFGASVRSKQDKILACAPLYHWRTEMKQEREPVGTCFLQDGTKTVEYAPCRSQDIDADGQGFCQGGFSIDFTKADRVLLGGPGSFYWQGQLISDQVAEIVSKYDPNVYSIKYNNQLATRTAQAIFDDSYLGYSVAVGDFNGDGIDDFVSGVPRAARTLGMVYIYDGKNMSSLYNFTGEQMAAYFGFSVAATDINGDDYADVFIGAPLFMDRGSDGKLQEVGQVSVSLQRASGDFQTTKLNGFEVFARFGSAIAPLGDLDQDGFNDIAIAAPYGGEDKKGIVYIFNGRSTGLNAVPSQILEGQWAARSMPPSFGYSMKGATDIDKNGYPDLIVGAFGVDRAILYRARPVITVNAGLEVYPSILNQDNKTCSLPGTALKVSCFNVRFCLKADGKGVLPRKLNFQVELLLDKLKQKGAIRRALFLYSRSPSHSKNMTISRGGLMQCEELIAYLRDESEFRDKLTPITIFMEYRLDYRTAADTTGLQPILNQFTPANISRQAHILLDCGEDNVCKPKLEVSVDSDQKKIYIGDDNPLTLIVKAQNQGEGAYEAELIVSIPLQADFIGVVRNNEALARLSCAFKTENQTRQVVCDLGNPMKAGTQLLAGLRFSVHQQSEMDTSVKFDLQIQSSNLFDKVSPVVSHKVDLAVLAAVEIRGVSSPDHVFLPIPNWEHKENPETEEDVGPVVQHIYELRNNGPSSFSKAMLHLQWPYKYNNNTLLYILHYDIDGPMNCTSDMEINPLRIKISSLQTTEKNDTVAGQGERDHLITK
# Sequence (P06756 891-1048 limits assumed): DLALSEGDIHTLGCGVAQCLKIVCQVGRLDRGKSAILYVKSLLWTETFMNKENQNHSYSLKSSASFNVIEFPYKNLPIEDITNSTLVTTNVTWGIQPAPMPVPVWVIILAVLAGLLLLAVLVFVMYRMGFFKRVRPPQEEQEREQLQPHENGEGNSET
# Procedure Summary: Inhibition of binding to human integrin receptor alpha V beta3
Measured Property: IC50 (pM)

Here are 8 molecules together with their reported answers.
// query Which value of IC50 has been reported for O=C(CCCCc1nc2c(cc1C1CC1)CCCN2)NCC(C(=O)O)c1ccc2c(c1)OCC2 (stereo unspecified) in the records?
// result 290

// query I would be grateful if you could share the reported IC50 for O=C(O)C[C@H](NC(=O)CCCCc1ccc2c(n1)NCCC2)c1cnc2ccccc2c1 .
// result 1070

// query Which value of IC50 has been reported for O=C(CCCCc1ccc2c(n1)NCCC2)NCC(C(=O)O)c1ccc2c(c1)OCC2 (stereo unspecified) in the records?
// result 1010

// query Which value of IC50 has been reported for O=C(CCCCc1ccc2c(n1)NCCC2)NCC(C(=O)O)c1cnc2ccccc2c1 (stereo unspecified) in the records?
// result 820

// query Record request: IC50 value, item O=C(CCCCc1ccc2c(n1)NCCC2)NCC(C(=O)O)c1ccccc1 (stereo unspecified)
// result 57400

// query Name the recorded IC50 for O=C(O)C[C@H](NC(=O)CCCCc1ccc2c(n1)NCCC2)c1ccccc1 .
// result 84000

// query Can you look up the measured IC50 of CN(CC(C(=O)O)c1ccc2c(c1)OCC2)C(=O)CCC1CCc2cc3c(nc2C1)NCCC3 (stereo unspecified) for me?
// result 350

// query Find the recorded IC50 belonging to CN(CC(C(=O)O)c1ccc2c(c1)OCC2)C(=O)CCCCc1ccc2c(n1)NCCC2 (stereo unspecified) and report it.
// result 740

A = O=C(CCCCc1ccc2c(n1)NCCC2)NCC(C(=O)O)c1cccc(F)c1 (stereo unspecified)
B = CN(CC(C(=O)O)c1ccc2c(c1)OCC2)C(=O)CCCCc1nc2c(cc1C1CC1)CCCN2 (stereo unspecified)
// query Compare the recorded IC50 of A and B ; state which is larger. When you have decided, please share the label of that item.
// result A
(A: 10900 pM, B: 490 pM)
